assay_procedure: AUC in Sprague-Dawley rat at 6 mg/kg, po administered via gavage using docusate sodium/methocel/water formulation by LC/MS/MS analysis
Format: ADME, organism-based
assay_context: in vivo
assay_readout: AUC (µM·h)
Output spec: scalar in µM·h, unitless text.

Exam item: Given the molecule `CNC(=O)c1c(-c2ccc(F)cc2)oc2ccc(-c3cc(C(=O)NC4(c5ncccn5)CC4)ccc3C)c(F)c12` , write its reported AUC.
Marked response: 140

---

assay_procedure: Clearance in Sprague-Dawley rat at 6 mg/kg, po via gavage by LC-MS/MS analysis
Assay type: ADME, organism-based
assay_context: in vivo
assay_readout: CL/F (mL/min/kg)
API: value field is a number in mL/min/kg; no unit string.

Exam item: Give the value of CL/F reported for the following: `CNC(=O)c1c(-c2ccc(F)cc2)oc2ccc(-c3cc(C(=O)NC4(c5ccccn5)CC4)ccc3C)cc12`
Marked response: 14
